Values compiled from the supplement of paper PMC6757056.

B1: library; a variant is named by its letters at N, in order (parent)
chain: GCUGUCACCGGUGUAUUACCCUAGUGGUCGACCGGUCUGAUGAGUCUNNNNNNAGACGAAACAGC

- Variants of: B1
- MEASUREMENT_DESCRIPTION: FACS-Seq fitted mean relative fluorescence mCherry/BFP with ligand (log10 relative fluorescence); ligand: hypoxanthine (xanthine aptamer); ligand concentration (+) FACS-Seq: 5 mM; higher = higher reporter protein expression
- RECORDED_CONDITIONS: HEK293T, ligand present: yes
Please enter 1 where FACS-Seq fitted mean (log10) is greater than or equal to 0.6, and 0 where it is lower.

Solved entries (count: 4):
- BIOSEQUENCE: "GCUGUCACCGGUGUAUUACCCUAGUGGUCGACCGGUCUGAUGAGUCUAGGAAGAGACGAAACAGC [AGGAAG]"
  CLASS_NAME: 0
- BIOSEQUENCE: "GCUGUCACCGGUGUAUUACCCUAGUGGUCGACCGGUCUGAUGAGUCUAAUAGGAGACGAAACAGC [AAUAGG]"
  CLASS_NAME: 0
- BIOSEQUENCE: "GCUGUCACCGGUGUAUUACCCUAGUGGUCGACCGGUCUGAUGAGUCUAGAGUAAGACGAAACAGC [AGAGUA]"
  CLASS_NAME: 1
- BIOSEQUENCE: "GCUGUCACCGGUGUAUUACCCUAGUGGUCGACCGGUCUGAUGAGUCUGAUCAAAGACGAAACAGC [GAUCAA]"
  CLASS_NAME: 1

Q) Tell me whether FACS-Seq fitted mean (log10) is at least 0.6 here: GCUGUCACCGGUGUAUUACCCUAGUGGUCGACCGGUCUGAUGAGUCUUAGAUGAGACGAAACAGC [UAGAUG]
A) 0

Q) Tell me whether FACS-Seq fitted mean (log10) is at least 0.6 here: GCUGUCACCGGUGUAUUACCCUAGUGGUCGACCGGUCUGAUGAGUCUAGGAGUAGACGAAACAGC [AGGAGU]
A) 0

Q) Tell me whether FACS-Seq fitted mean (log10) is at least 0.6 here: GCUGUCACCGGUGUAUUACCCUAGUGGUCGACCGGUCUGAUGAGUCUAUUAUAAGACGAAACAGC [AUUAUA]
A) 0

Q) Tell me whether FACS-Seq fitted mean (log10) is at least 0.6 here: GCUGUCACCGGUGUAUUACCCUAGUGGUCGACCGGUCUGAUGAGUCUCAAACCAGACGAAACAGC [CAAACC]
A) 1

Q) Tell me whether FACS-Seq fitted mean (log10) is at least 0.6 here: GCUGUCACCGGUGUAUUACCCUAGUGGUCGACCGGUCUGAUGAGUCUGUUGUGAGACGAAACAGC [GUUGUG]
A) 0
